Test system: SF-539 CNS
protocol: NCI tumour cell line growth inhibition, 48 h
endpoint.name: TGI (µM)
Only the number, expressed in µM, is required.

# lookup: TGI of O=C(/C=C1\C(=O)N(Cc2ccccc2)c2ccccc21)c1ccc(OCCN2CCCCC2)cc1
4.14

Could you tell me which TGI is on file for CC1SC2(CCCCC2)N(NC(=O)CSc2nc3ccc(Cl)cc3c(=O)n2-c2ccccc2)C1=O (stereo not given) ?
33

What TGI value was documented for this compound, C[C@H]1CNC(=O)c2cnn3ccc(nc23)N[C@H](C)c2cc(F)ccc2O1 ?
3.79

GET /values?readout=TGI&item= C=C1C(=O)O[C@H]2[C@H]1CC/C(Cn1cc(-c3ccc(F)cc3)nn1)=C\CC[C@@]1(C)O[C@@H]21
1.08
